Species: Homo sapiens
Test: Selectivity of Orexin type 2 receptor over Orexin type 1 receptor
Hi there, I'd appreciate the recorded Selectivity for every entry that follows.

input: Give the measured Selectivity of CC1(C)OC[C@H](NC(=O)Nc2cc(Cl)ccc2Cl)[C@H](c2ccccc2)O1 .
output: > 80

Return reported Selectivity values for all items listed beneath this line.
1. COc1ccccc1NC(=O)N[C@H]1COC(C)(C)O[C@H]1c1ccccc1
2. CC1(C)OC[C@H](NC(=O)Nc2ccccc2-c2cccs2)[C@H](c2ccccc2)O1
3. Cc1ccc(NC(=O)N[C@H]2COC(C)(C)O[C@H]2c2ccccc2)c(C)c1

output:
1: > 4; 2: 20; 3: > 70

---

Target: Orexin receptor type 2 (Homo sapiens)
Sequence (O43614 whole entry): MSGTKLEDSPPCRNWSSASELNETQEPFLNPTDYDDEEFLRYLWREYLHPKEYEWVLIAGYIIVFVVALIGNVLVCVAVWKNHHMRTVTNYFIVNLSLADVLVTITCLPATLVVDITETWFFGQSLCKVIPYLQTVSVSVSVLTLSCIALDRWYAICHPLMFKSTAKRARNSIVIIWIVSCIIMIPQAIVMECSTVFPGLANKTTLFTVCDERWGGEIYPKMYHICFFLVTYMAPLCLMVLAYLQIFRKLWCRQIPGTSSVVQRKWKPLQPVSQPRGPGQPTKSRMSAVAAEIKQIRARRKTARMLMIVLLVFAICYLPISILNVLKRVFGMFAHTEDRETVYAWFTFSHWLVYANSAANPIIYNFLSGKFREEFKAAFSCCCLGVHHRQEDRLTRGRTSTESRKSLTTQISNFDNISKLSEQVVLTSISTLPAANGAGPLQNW
Experiment: Antagonistic activity towards intracellular calcium levels in cells expressing Orexin receptor type 2
Assay type: functional, cell-based
Measure: pKb

input: Give the measured pKb of CC1(C)OC[C@H](NC(=O)Nc2ccccc2I)[C@H](c2ccccc2)O1 .
output: 6.5

input: Can you check CC1(C)OC[C@H](NC(=O)Nc2ccc(Cl)cc2Cl)[C@H](c2ccccc2)O1 next?
output: 7

input: Can you check CC1(C)OC[C@H](NC(=O)Nc2ccccc2Br)[C@H](c2ccccc2)O1 next?
output: 6.3

input: Can you check CC1(C)OC[C@H](NC(=O)Nc2ccccc2Cl)[C@H](c2ccccc2)O1 next?
output: 6

Let us examine a further case.
input: Give the measured pKb of CC1(C)OC[C@H](NC(=O)Nc2ccc(Br)cc2Br)[C@H](c2ccccc2)O1 .
output: 7.9

---

Recorded below: pKi, system Orexin receptor type 2 (Homo sapiens).
One number for each entry, as −log10 of the molar value.

input: Give the measured pKi of CC1(C)OC[C@H](NC(=O)Cc2ccccc2Br)[C@H](c2ccccc2)O1 .
output: 5.80

input: Can you check CC1(C)OC[C@H](NC(=O)Nc2ccc(Cl)cc2Cl)[C@H](c2ccccc2)O1 next?
output: 7.70

input: Can you check CC1(C)OC[C@H](/N=C(\S)Nc2ccccc2Br)[C@H](c2ccccc2)O1 next?
output: 6.40

input: Can you check CC1(C)OC[C@H](NC(=O)c2ccc(Cl)cc2Cl)[C@H](c2ccccc2)O1 next?
output: 6.70

input: Can you check CC1(C)OC[C@H](NC(=O)Oc2ccccc2Cl)[C@H](c2ccccc2)O1 next?
output: 5.80

Return reported pKi values for all items listed beneath this line.
1. CC1(C)OC[C@H](NC(=O)Nc2ccc(Br)cc2)[C@H](c2ccccc2)O1
2. CC1(C)OC[C@H](NC(=O)Nc2ccccc2-c2cccc(Cl)c2)[C@H](c2ccccc2)O1
3. CC1(C)OC[C@H](NC(=O)Nc2ccccc2-c2ccccc2)[C@H](c2ccccc2)O1
4. CC1(C)OC[C@H](/N=C(\S)Nc2ccc(Cl)cc2Cl)[C@H](c2ccccc2)O1
5. Cc1ccc(NC(=O)N[C@H]2COC(C)(C)O[C@H]2c2ccccc2)c(C)c1

output:
1: 6.60; 2: 7.10; 3: 7.00; 4: 6.70; 5: 6.90

---

Hi there, I'd appreciate the recorded Selectivity for every entry that follows.
Species: Homo sapiens
Experiment: Selectivity of Orexin type 2 receptor over Orexin type 1 receptor

input: Give the measured Selectivity of CC1(C)OC[C@H](NC(=O)Nc2ccccc2-c2cccnc2)[C@H](c2ccccc2)O1 .
output: > 20

input: Can you check CC1(C)OC[C@H](/N=C(\S)Nc2ccccc2Br)[C@H](c2ccccc2)O1 next?
output: > 30

---
input: Give the measured Selectivity of CC1(C)OC[C@H](NC(=O)Nc2c(Cl)cccc2Cl)[C@H](c2ccccc2)O1 .
output: > 2

---

Species on record: Homo sapiens
Assay: Selectivity of Orexin type 2 receptor over Orexin type 1 receptor
Measure: Selectivity

Return reported Selectivity values for all items listed beneath this line.
1. CC(C)c1ccccc1NC(=O)N[C@H]1COC(C)(C)O[C@H]1c1ccccc1
2. CC1(C)OC[C@H](NC(=O)Nc2ccccc2F)[C@H](c2ccccc2)O1
3. CC1(C)OC[C@H](NC(=O)Nc2ccc(Br)cc2Cl)[C@H](c2ccccc2)O1

output:
1: > 4; 2: > 20; 3: > 900
